measured target: human TLR8 (Homo sapiens (Human))
Sequence (Q9NR97 27-1041): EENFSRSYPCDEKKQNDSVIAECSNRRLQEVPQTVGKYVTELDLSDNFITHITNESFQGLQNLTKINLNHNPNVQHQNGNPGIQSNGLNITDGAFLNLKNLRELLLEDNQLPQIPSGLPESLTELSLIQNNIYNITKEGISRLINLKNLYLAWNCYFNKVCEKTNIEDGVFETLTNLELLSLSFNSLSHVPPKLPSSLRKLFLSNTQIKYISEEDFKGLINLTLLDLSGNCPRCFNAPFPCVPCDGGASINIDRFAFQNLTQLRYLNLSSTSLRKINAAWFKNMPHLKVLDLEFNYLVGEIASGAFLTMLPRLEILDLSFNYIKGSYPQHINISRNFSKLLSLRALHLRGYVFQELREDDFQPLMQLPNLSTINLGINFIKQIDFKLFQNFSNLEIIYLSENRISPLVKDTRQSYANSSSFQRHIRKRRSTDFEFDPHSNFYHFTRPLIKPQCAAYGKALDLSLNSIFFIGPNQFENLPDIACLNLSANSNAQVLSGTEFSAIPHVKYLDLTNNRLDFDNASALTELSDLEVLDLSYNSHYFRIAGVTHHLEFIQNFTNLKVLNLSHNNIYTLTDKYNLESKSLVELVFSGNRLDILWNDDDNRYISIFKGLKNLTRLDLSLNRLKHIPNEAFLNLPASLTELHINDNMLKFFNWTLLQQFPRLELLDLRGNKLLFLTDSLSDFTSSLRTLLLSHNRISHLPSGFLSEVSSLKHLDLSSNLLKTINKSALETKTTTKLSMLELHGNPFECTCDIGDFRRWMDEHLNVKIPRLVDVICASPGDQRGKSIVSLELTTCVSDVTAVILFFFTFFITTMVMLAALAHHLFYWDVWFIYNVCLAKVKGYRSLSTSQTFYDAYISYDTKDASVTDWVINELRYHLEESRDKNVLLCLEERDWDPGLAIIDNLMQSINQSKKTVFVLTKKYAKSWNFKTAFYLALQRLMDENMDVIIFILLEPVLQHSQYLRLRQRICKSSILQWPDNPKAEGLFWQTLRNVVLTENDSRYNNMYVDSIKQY
protocol details: TLR8 inhibition reporter assay (HEK-Blue SEAP);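 note: SEAP driven by IFN-β minimal promoter carrying NF-κB and AP-1 sites, compounds dosed 0.05 nM to 50 µM for 22 h, inhibition scaled between agonist-plus-DMSO and reference-inhibitor wells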
test settings: read-out: TLR8 IC50; HEK-Blue cells overexpressing human TLR8, R848 15.9 μM stimulation, SEAP reporter
quantity measured: pIC50
Answers are plain numbers, as −log10 of the molar value.

Some compounds with recorded pIC50:
Cc1c(-c2[nH]c3ccc(N4CCC(N(Cc5cn(C)nn5)Cc5cn(C)nn5)CC4)nc3c2C(C)C)cn2ncnc2c1C [Example 73] | 8.24
COc1cc(-c2[nH]c3ccc(C4CCC(N(C)CCO)CC4)nc3c2C(C)C)cn2ncnc12 (stereo not shown) [Example 169] | 7.68
Cc1cnc(CNC2CCC(c3ccc4[nH]c(-c5cn(C)c6ncccc56)c(C(C)C)c4n3)CC2)cn1 (stereo not shown) [Example 205] | 9.00
COc1cc(-c2[nH]c3ccc(N4CCN(CC5(C)COC5)CC4)nc3c2C(C)C)cn2ncnc12 [Example 102] | 8.29
Cc1c(-c2[nH]c3ccc(C4CCC(N(C)CCC#N)CC4)nc3c2C(C)C)cn2ncnc2c1C (stereo not shown) [Example 361] | 9.00

Take each entry in turn and give its pIC50.
1. COc1cc(-c2[nH]c3cc(C)c(C4CCC(NCC5(C)COC5)CC4)nc3c2C(C)C)cn2ncnc12 (stereo not shown) [Example 315]
2. COc1cc(-c2[nH]c3ccc(C4CCC(N5CC6(COC6)C5)CC4)nc3c2C(C)C)cn2ncnc12 (stereo not shown) [Example 244]

1. 7.54
2. 8.09
